Source of measurements: the OligoGym collection

molecular target: RAET1E; experiment: pooled miR-30 sensor sort-seq; sequence = guide strand; conditions: shRNA; note: reference of the scale not given here
Listed below: sensor-assay potency score (higher = more potent) values for each entry.
quantity_measured: sensor-assay potency score (higher = more potent)

sequence_record: TTACTGGTGACACTGTCGGTTC
experimental_result: -0.629

sequence_record: TTCACGTTGACAAAACATCTCG
experimental_result: -0.11

sequence_record: TTGACCATGTTGTTGTCACTGT
experimental_result: 0.253

sequence_record: TTCATGATTAATTACTGTCCAG
experimental_result: -0.655

sequence_record: TTTATAGTGAAGTTGAAGCAAA
experimental_result: -1.04

sequence_record: TTTGATGTCACAAAGGAGCATC
experimental_result: -0.244

sequence_record: TATCTGAAGCATTTACTGGTGA
experimental_result: 0.282

---

target: SLITRK5; assay: pooled miR-30 sensor sort-seq; sequence = guide strand; settings: shRNA
Catalogue of sensor-assay potency score (higher = more potent) values
quantity_measured: sensor-assay potency score (higher = more potent)

sequence_record: TAATACAGTGTGACACCTCTGC
experimental_result: 0.818
//
sequence_record: AACATTGCTACCTAGATGCAAA
experimental_result: -1.34
//
sequence_record: TAATTGACAAACTCATTGGGAT
experimental_result: 0.191
//
sequence_record: TCGCTCTGGTTCTTCTTCCTGC
experimental_result: -1.1
//
sequence_record: TTCCAGACTGAATCTCGCGGAT
experimental_result: -0.818
//
sequence_record: TACAGCAAACGCTAGAGTCTGC
experimental_result: -0.49
//
sequence_record: TAGTCAGAAATAAGTCTCCTTG
experimental_result: -0.638

---

target: SLAIN1; test: pooled miR-30 sensor sort-seq; sequence = guide strand; settings: shRNA
Each entry below carries its recorded sensor-assay potency score (higher = more potent).
quantity_measured: sensor-assay potency score (higher = more potent)

sequence_record: TTCTTGAAATTCCATTTCCAGC
experimental_result: -1.69
//
sequence_record: TACATGTCCCTTTTTTTCCTGA
experimental_result: -0.235
//
sequence_record: TATGTCTTGATACAGATGCTGA
experimental_result: -0.777
//
sequence_record: TATATTAAAACACAAAAGGGAA
experimental_result: -0.738
//
sequence_record: TATTTGAAGGAAAATACTGGGA
experimental_result: 0.189
//
sequence_record: TTCTTCGGAGCTTATCTCCATT
experimental_result: -0.767
//
sequence_record: TGAAGTAGAAGCATAATCTTGC
experimental_result: 0.776

---

Parameter: sensor-assay potency score (higher = more potent). Scope: all listed entries.
target: ZNF213; experiment: pooled miR-30 sensor sort-seq; sequence = guide strand; details: shRNA
quantity_measured: sensor-assay potency score (higher = more potent)

sequence_record: TAATACTCTTCTGTTGCCCTTT
experimental_result: 0.353
//
sequence_record: TCGGGTTCCGCCTCCTCCGAGG
experimental_result: -1.19
//
sequence_record: TGTAGGTCCTCCACCAAGGCGA
experimental_result: -0.787
//
sequence_record: TTCGGAATCCCTGCCATCCTCA
experimental_result: -0.738
//
sequence_record: TTTGAGCCCAAAACCCAGGGTG
experimental_result: -0.556
//
sequence_record: TTTCACTGGCTGCTTCTGTAGG
experimental_result: -0.917
//
sequence_record: TTCTGTAGGTCCTCCACCAAGG
experimental_result: -1.39
//
sequence_record: TGTCTGGCCTGGCACCACCGGC
experimental_result: -1.68
